System: Human immunodeficiency virus type 1 integrase (Human immunodeficiency virus 1)
Assay: Inhibition of HIV1 integrase 3' processing activity
// values below are reported IC50
Value expressed in µM; do not type the unit.

>>> print(df.to_string())
                                smiles_repr  measured_endpoint  unit_annotation  reported_measurement
0  Cc1cc(S(=O)(=O)Nc2nc3cscc3c(=O)n2Cc2ccccc2)c(S)cc1Cl               IC50               µM                    80

Read the next record carefully.
What measured IC50 goes with Cc1cc(S(=O)(=O)Nc2nc3cc(Cl)ccc3c(=O)[nH]2)c(SCc2ccccc2)cc1Cl ? 47

====

// values below are reported IC50
System: Human immunodeficiency virus type 1 integrase (Human immunodeficiency virus 1, UniProt Q7ZJM1)
Sequence (Q7ZJM1 whole entry): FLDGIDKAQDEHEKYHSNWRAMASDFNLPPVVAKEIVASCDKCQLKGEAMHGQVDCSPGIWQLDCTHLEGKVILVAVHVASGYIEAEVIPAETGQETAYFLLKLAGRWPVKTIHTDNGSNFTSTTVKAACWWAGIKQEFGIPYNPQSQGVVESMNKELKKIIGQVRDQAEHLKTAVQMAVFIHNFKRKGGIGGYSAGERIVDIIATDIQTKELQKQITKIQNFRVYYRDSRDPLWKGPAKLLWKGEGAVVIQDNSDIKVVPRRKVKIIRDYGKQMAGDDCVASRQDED
Assay: Inhibition of HIV1 integrase 3' processing activity
Value expressed in µM; do not type the unit.

Some entries whose results are on file:
>>> print(df.to_string())
                                smiles_repr  reported_measurement
0  Cc1cc(S(=O)(=O)Nc2nc3cc(-c4ccsc4)sc3c(=O)n2Cc2ccco2)c(S)cc1Cl                     8
1  Cc1cc(S(=O)(=O)Nc2nc3cc(C(C)(C)C)sc3c(=O)n2Cc2ccccc2)c(S)cc1Cl                    22
2  Cc1cc(S(=O)(=O)Nc2nc3sc(C)c(C)c3c(=O)n2N)c(S)cc1Cl                    55
3  Cc1cc(S(=O)(=O)Nc2nc3ccsc3c(=O)n2Cc2ccco2)c(S)cc1Cl                    62
4  Cc1cc(S(=O)(=O)Nc2nc3ccsc3c(=O)n2N)c(S)cc1Cl                    65
5  O=C(Nc1ccccc1)c1cc(S(=O)(=O)Nc2nc3ccccc3c(=O)[nH]2)c(SCc2ccccc2)cc1Cl                    73
6  Cc1cc(S(=O)(=O)Nc2nc3cc(-c4ccccc4)sc3c(=O)n2Cc2ccccc2)c(S)cc1Cl                     9

Read the next record carefully.
What measured IC50 goes with Cc1cc(S(=O)(=O)Nc2nc3cc(C(C)(C)C)sc3c(=O)n2N)c(S)cc1Cl ? 60

====

Test system: SF-268
Assay: Growth inhibition of human SF268 cells
Format: functional
Measured endpoint: GI50

                                smiles_repr  reported_measurement
0  Cc1cc(S(=O)(=O)Nc2nc3cc(-c4ccsc4)sc3c(=O)n2Cc2ccco2)c(S)cc1Cl              > 100 µM
1  Cc1cc(S(=O)(=O)Nc2nc3cscc3c(=O)n2N)c(S)cc1Cl               17.7 µM
2  Cc1cc(S(=O)(=O)Nc2nc3cc(-c4ccccc4)sc3c(=O)n2Cc2ccccc2)c(S)cc1Cl              > 100 µM

Read the next record carefully.
What measured GI50 goes with Cc1cc(S(=O)(=O)Nc2nc3cc(-c4ccc(Cl)cc4)sc3c(=O)n2Cc2ccccc2)c(S)cc1Cl ? > 100 µM

====

System: SNB-75
Assay: Growth inhibition of human SNB75 cells
Type: functional
// values below are reported GI50
Value expressed in µM; do not type the unit.

>>> df
                                smiles_repr  measured_endpoint  unit_annotation  reported_measurement
0  Cc1cc(S(=O)(=O)Nc2nc3ccccc3c(=O)n2N)c(S)cc1Cl               GI50               µM                  13.3

Read the next record carefully.
What measured GI50 goes with Cc1cc(S(=O)(=O)Nc2nc3cscc3c(=O)n2N)c(S)cc1Cl ? 15

Value source: ChEMBL document CHEMBL1156690
